Where these numbers come from: ChEMBL document CHEMBL1156106

measurement target: Sodium-dependent serotonin transporter (Homo sapiens, UniProt P31645)
Sequence (P31645 whole entry): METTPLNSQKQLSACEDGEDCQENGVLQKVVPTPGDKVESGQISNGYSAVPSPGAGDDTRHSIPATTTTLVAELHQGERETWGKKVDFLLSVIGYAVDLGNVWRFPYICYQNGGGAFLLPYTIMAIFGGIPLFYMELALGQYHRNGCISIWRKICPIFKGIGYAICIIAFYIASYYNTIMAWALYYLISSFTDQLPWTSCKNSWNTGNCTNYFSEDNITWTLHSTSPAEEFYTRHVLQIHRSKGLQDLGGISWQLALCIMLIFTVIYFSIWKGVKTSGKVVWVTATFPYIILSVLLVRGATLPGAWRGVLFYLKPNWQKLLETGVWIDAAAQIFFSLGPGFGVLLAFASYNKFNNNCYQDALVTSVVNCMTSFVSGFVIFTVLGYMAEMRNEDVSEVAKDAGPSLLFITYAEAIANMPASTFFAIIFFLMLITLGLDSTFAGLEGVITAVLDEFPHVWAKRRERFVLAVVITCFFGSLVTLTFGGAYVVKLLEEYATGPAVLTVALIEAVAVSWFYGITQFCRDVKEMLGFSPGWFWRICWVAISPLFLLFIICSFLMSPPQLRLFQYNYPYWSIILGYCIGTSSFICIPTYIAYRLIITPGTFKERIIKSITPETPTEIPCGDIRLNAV
method summary: biochemical
Format: cell-based, HEK293
pKi: −log10 of the molar value.
parameter measured: pKi

compound	pKi
CC(NC(C)(C)C)C(O)c1ccccc1 (racemic)	5.40

Challenge: Please give the measured pKi for this compound: CC(NC1CCCC1)C(=O)c1cccc(Cl)c1 (stereo not drawn)
Response given: < 5.00

Challenge: Same question, CCCCC(NC(C)(C)C)C(=O)c1cccc(Cl)c1 (stereo not drawn) this time
Response given: < 5.00

----------
# Activity annotations
Test system: Rattus norvegicus
method summary: Effect on behavioural activity in rat assessed as cocaine-induced lever response at 2.5 mg/kg, po pretreated with cocaine for 90 mins by drug-discrimination studies
Format: functional
Please state the figure in %; there is no need to write the unit.

Known results for compounds:
compound	unit	Activity
CC(NC(C)(C)C)C(=O)c1cccc(Br)c1 (stereo not drawn)	%	0
CC(NC(C)(C)C)C(=O)c1cc(F)cc(F)c1 (stereo not drawn)	%	20
CC(NC1CC1)C(=O)c1cccc(Cl)c1 (stereo not drawn)	%	0
CCCC(NC(C)(C)C)C(=O)c1ccc(Cl)c(Cl)c1 (stereo not drawn)	%	0
CCC(NC(C)(C)C)C(=O)c1ccc(Cl)c(Cl)c1 (stereo not drawn)	%	17

Challenge: // map CCCC(NC(C)(C)C)C(=O)c1cccc(Cl)c1 (stereo not drawn) to recorded Activity (system: Rattus norvegicus)
Response given: 0

Challenge: Same question, CC(C(=O)c1cccc(Cl)c1)N(C)C (stereo not drawn) this time
Response given: 0

Challenge: Same question, CC(NC(C)(C)C)C(=O)c1ccccc1 (stereo not drawn) this time
Response given: 1

----------
# Activity annotations
System: Rattus norvegicus
method summary: Effect on behavioural activity in rat assessed as cocaine-induced lever response at 10 mg/kg, ip pretreated with cocaine for 30 mins by drug-discrimination studies
Type: functional
condition label: route intraperitoneal
Please state the figure in %; there is no need to write the unit.

compound	measurement target	parameter measured	unit	endpoint result
CC(NC1CCCC1)C(=O)c1cccc(Cl)c1 (stereo not given)	Rattus norvegicus	Activity	%	66.2
CC(NC(C)(C)C)C(=O)c1cc(F)cc(F)c1 (stereo not given)	Rattus norvegicus	Activity	%	16.7
CCCC(NC(C)(C)C)C(=O)c1ccc(Cl)c(Cl)c1 (stereo not given)	Rattus norvegicus	Activity	%	33.3
CC(NC(C)(C)C)C(=O)c1cccc(Br)c1 (stereo not given)	Rattus norvegicus	Activity	%	21

Turning to the following compound.
Challenge: Please give the measured Activity for this compound: CCCCC(NC(C)(C)C)C(=O)c1cccc(Cl)c1 (stereo not given)
Response given: 66.6

----------
Test system: Rattus norvegicus
method summary: Effect on behavioural activity in rat assessed as cocaine-induced lever response at 5 mg/kg, po pretreated with cocaine for 90 mins by drug-discrimination studies
Format: functional
parameter measured: Activity (%)
Please state the figure in %; there is no need to write the unit.

Known results for compounds:
compound	Activity (%)
CC(NC(C)(C)C)C(=O)c1cccc(F)c1 (stereo not given)	0
CCCC(NC(C)(C)C)C(=O)c1cccc(Cl)c1 (stereo not given)	0
CC(NC(C)(C)C)C(=O)c1cc(F)cc(F)c1 (stereo not given)	7

Challenge: Please give the measured Activity for this compound: CC(NC(C)(C)C)C(=O)c1cccc(Cl)c1 (stereo not given)
Response given: 0

Challenge: Same question, CC(NC(C)(C)C)C(=O)c1cccc(Br)c1 (stereo not given) this time
Response given: 15

Challenge: Same question, CC(NC1CC1)C(=O)c1cccc(Cl)c1 (stereo not given) this time
Response given: 0
